ASSAY TARGET: Cellular tumor antigen p53 (Homo sapiens)
TEST DETAILS: TOX21_p53_BLA_p4_ratio: Tox21 HCT-116 p53 Agonism Beta-lactamase Assay, Ratio, Phase 4 (AID 2283601)
Inconclusive results are not listed. Activity calls are given as the source filed them. The calls were made as follows: active = hit-call score of the fitted dose curve at least 0.9, where 1 is the maximum; inconclusive = response in the unintended direction; inactive = score below 0.9.
Your response should consist of one outcome taken from active, inactive

For orientation, consider the following solved cases.
C[C@H](NCCc1ccc(O)cc1)[C@H](O)c1ccc(O)cc1 | inactive
Nc1ccc(S(=O)(=O)Nc2ccc(Cl)nn2)cc1 | inactive
C=CC(=O)O | inactive

// switching to the query compound
Which outcome was entered for the compound `Nc1nc2ccc(OC(F)(F)F)cc2s1` in this test?
active
